test system: A549/ATCC NSCLC; assay: NCI-60 one-dose screen, 48 h; details: 10 µM unless noted
Compounds without any hit were thinned out: in the full panel of roughly 83,000, 20% have a hit. Active and inactive are the calls of the source. The calls were made as follows: active = growth percent below 10; inactive = the rest.
Possible outcomes: t (active), f (inactive)

molecule=COc1c(-c2cc(-c3ccc(C)o3)[nH]c(=O)n2)c(O)cc2occc12 group=f
molecule=O=C(CCCCCCc1nc2ccc(Br)cc2[nH]1)NO group=t
molecule=C#CCNC(=S)N/N=C(\C)c1ccccn1 group=f
molecule=COc1ccc(/C(=C\c2cc(OC)c(OC)c(OC)c2)C(=O)N2CCNCC2)cc1 group=f
molecule=Cn1c(=O)c2[nH]c(Cc3ccc4c(c3)OCO4)nc2n(C)c1=O group=f
molecule="O=C(O)C1[S][Sb]([CH](C(=O)O)[CH](C(=O)O)[Sb]2[S]C(C(=O)O)C(C(=O)O)[S]2)[S]C1C(=O)O (stereo unspecified)" group=f
molecule=COc1ccc(Sc2[nH]c(C=O)c3ccccc23)cc1 group=f
molecule=Cc1cccc(C(=O)O)n1 group=f
molecule=Cn1c(=O)c2c3c(oc2c2ccccc21)C(=O)c1ccccc1C3=O group=f
molecule=O=C(Nc1ccc2[nH]c3ccccc3c2c1)c1ccccc1Cl group=f
molecule=COc1c(B(O)O)cccc1-c1nc2ccc3[nH]ncc3c2c2c1CCCC2 group=t
molecule=CC[C@H](Nc1nc(N)nc(N)c1Cl)c1nc2cccc(NCc3ccc(C(=O)NO)cc3)c2c(=O)n1-c1ccccc1 group=t
molecule=O=c1[nH]c2ccccc2n2cc3cccnc3c12 group=f
molecule=C=CCOc1c(Br)cc(Br)cc1Br group=f
molecule=CCc1ccc(Nc2cc(C)c3ccc(O)cc3n2)cc1 group=f
molecule="C/C=C(\\C)C(C(=O)NC1CCCCC1)N(C(=O)C1CCc2cc(F)ccc2O1)c1ccc([N+](=O)[O-])cc1 (stereo unspecified)" group=f
molecule=O=C(NC1CC1)c1ccc(-c2nc3ccc4[nH]ncc4c3c3c2CCCC3)cc1 group=f
molecule=CN(C)c1ccc(Nc2c3ccccc3nc3ccccc23)cc1 group=f
molecule="COc1ccc(C2=NN(C=O)C(c3ccc(OS(=O)(=O)c4ccc(C)cc4)c(OC)c3)C2)cc1 (stereo unspecified)" group=f
molecule="COc1cc(C2CC(c3cccc(Nc4ccnc5cc(Cl)ccc45)c3)=NN2c2ccccc2)cc(OC)c1OC (stereo unspecified)" group=f
molecule=C#CC[C@@H]1C[C@]2(C)[C@H]3CC=C4[C@H]5CC(C)(C)CC[C@]5(C(=O)NCCCCN)CC[C@@]4(C)[C@]3(C)CC[C@H]2C(C)(C)[C@H]1OC(C)=O group=f

###

test system: NCI-H322M lung; assay: NCI-60 one-dose screen, 48 h (100 = growth as untreated, 0 = no growth, -100 = all killed); settings: 10 µM unless noted
Compounds without any hit were thinned out: in the full panel of roughly 83,000, 20% have a hit.
Assign Condition met to entries whose growth meets or exceeds 90%; assign Condition not met to the rest.

compound=COc1ccc(NC(=O)c2ccc(C(F)(F)F)nc2Nc2ccc(Cl)cc2C)cc1Cl group="Condition not met"
compound=CC(C)COC(=O)NC(C)(C)C group="Condition met"
compound=CC(=O)Nc1nonc1-c1nc2ccccc2n1Cc1ccc(C(C)(C)C)cc1 group="Condition not met"
compound=Cc1ccc(CSCc2ccc(C(=O)NC3CC3)o2)cc1 group="Condition not met"
compound="O=C1OCC2=C1C(c1ccc(Cl)c(Cl)c1)c1cc3c(cc1N2CCO)CCC3 (stereo not given)" group="Condition not met"
compound=Cc1cc(N=Nc2ccc(-c3ccc(N=Nc4ccc(O)c(C(=O)O)c4)cc3)cc2)c(N)c(N=Nc2ccc(C(=O)O)cc2)c1N group="Condition met"
compound=Cc1ccc(-c2cnc3sc4ccc(Cl)cc4n23)cc1 group="Condition met"
compound=CC(=O)N(C)c1ccc(Nc2cc(C)[nH]c3ccc4ncnc4c23)cc1 group="Condition not met"

###

test system: MCF7 breast; assay: NCI-60 one-dose screen, 48 h (100 = growth as untreated, 0 = no growth, -100 = all killed); details: 10 µM unless noted
The panel holds about 83,000 compounds, 20% with a hit somewhere; the sample as a whole holds those more often.
Assign T to entries whose growth meets or exceeds 40%; assign F to the rest.

molecule=CC(=O)c1nn(-c2ccccc2)/c(=N\N=C\c2coc3ccc(F)cc3c2=O)s1 group=T
molecule=O=C(Nc1ccccc1Cl)Oc1ccc2ccccc2c1 group=T
molecule=O=C(OCc1ccc2c(Br)cc(Br)c(O)c2n1)c1cc2ccccc2[nH]1 group=F
molecule=C/C(=N\OC(=O)Nc1cccc(Cl)c1)c1ccccc1 group=T
molecule="CCCCNCCC(O)c1cc2ccc(C(F)(F)F)cc2c2cc(C(F)(F)F)ccc12 (stereo not drawn)" group=F
molecule=CCCCn1c(C)nc2cc(Nc3nc(Cl)nc4nc[nH]c34)ccc21 group=T
molecule="Cc1ccc(C2CC(c3cccs3)=NN2c2ccc(S(N)(=O)=O)cc2)s1 (stereo not drawn)" group=T
molecule="CCN(CC)CCCC(C)Nc1cnc(C(=O)Nc2ccc(Cl)c3cccnc23)cn1 (stereo not drawn)" group=F
molecule=CNCCCNc1ccnc2cc(Cl)ccc12 group=F
molecule="COc1cc(NC(C)CCCN)c2ncccc2c1Sc1ccc(Cl)cc1 (stereo not drawn)" group=F
molecule=O=C(O)Cn1ccc2ccccc21 group=T
molecule="CC1=C(C(=O)Nc2ccc(F)cc2)C(c2ccc(Cl)cc2)C2=C(CC(C)(C)CC2=O)N1 (stereo not drawn)" group=T
molecule=CC1=NOCC(=O)N1 group=T
molecule=O=C(/C=C/c1cccc([N+](=O)[O-])c1)c1ccc(Nc2nc(N3CCCCC3)nc(N3CCCCC3)n2)cc1 group=F
molecule=Cc1n(Cc2ccc3ccccc3n2)cc[n+]1Cc1ccc2ccccc2c1 group=F
molecule=C/C(=N\NC(=S)Nc1ccccc1)c1ccccn1 group=F
molecule=O=C1C=CC(=O)N1c1cccc(N2C(=O)C=CC2=O)c1 group=T
molecule=CCOc1cccc(/C=N/NC(=O)Cc2ccc(Nc3ccnc(C(F)(F)F)c3)cc2)c1O group=F
molecule=Brc1cccc(-n2ncc3c(Nc4ccc(-c5nnc(-c6ccccc6)o5)cc4)ncnc32)c1 group=T
molecule=Nc1ccc(N(O)/C=C2\C=CC=CC2=O)cc1N group=T
molecule=C/C(=C\C(=N\N=C(N)N)c1ccc(Cl)cc1)c1ccc(Cl)cc1 group=F
molecule=COc1cc(/C=C/C(=O)c2ccc(NC(=O)CSc3nnc(-c4ccc(Cl)cc4)n3-c3ccccc3)cc2)cc(OC)c1OC group=F

###

tested on: HS 578T breast; assay: NCI-60 one-dose screen, 48 h; settings: 10 µM
This is part of a sample that, as a whole, favours compounds with a hit. Of some 83,000 tested, about 20% had one in any assay. Activity calls are given as the source filed them. The calls were made as follows: active = growth percent below 10; inactive = the rest.
Possible outcomes: yes (1) = active, no (0) = inactive

molecule=O=C(CCc1nc2sc3c(c2c(=O)[nH]1)CCC3)NCc1cn(-c2ccccc2)nc1-c1ccccc1 assayed_target="HS 578T breast" group="no (0)"
molecule=Cc1cc(C)c([O-])c(CN(C)CCN(C)Cc2cc(C)cc(C)c2[O-])c1.O=C([O-])c1cccc(C(=O)[O-])n1.[Ti+4] assayed_target="HS 578T breast" group="yes (1)"
molecule=C#CC[C@@H]1C[C@]2(C)[C@H]3CC=C4[C@H]5[C@@H](C)[C@H](C)CC[C@]5(C(=O)NCCCN5CCN(CCCN)CC5)CC[C@@]4(C)[C@]3(C)CC[C@H]2C(C)(C)[C@H]1OC(C)=O assayed_target="HS 578T breast" group="yes (1)"
molecule="CC(CN1CCN(CCOCCO)CC1)CN1c2ccccc2Sc2ccc(Cl)cc21 (centres undefined)" assayed_target="HS 578T breast" group="no (0)"
molecule=Oc1ccc(CCCCCCc2ccc(O)cc2)cc1 assayed_target="HS 578T breast" group="no (0)"
molecule=O=C(Nc1ccc(OS(=O)(=O)c2ccc(F)cc2)cc1)C12CC3CC(CC(C3)C1)C2 assayed_target="HS 578T breast" group="no (0)"
molecule=COc1ccc(-n2nc(C(=O)NCC(=O)Nc3nc4cc(OC)ccc4s3)c3ccccc3c2=O)cc1 assayed_target="HS 578T breast" group="yes (1)"
molecule="O=C1OCC2=C1C(c1ccc(Cl)c(Cl)c1)c1cc3c(cc1N2CCO)CCC3 (centres undefined)" assayed_target="HS 578T breast" group="yes (1)"
molecule="CC(=O)OC1Oc2ccccc2-c2oc3nc(=N)n(C)c-3cc21 (centres undefined)" assayed_target="HS 578T breast" group="no (0)"

###

test system: A498 renal; test: NCI-60 one-dose screen, 48 h (100 = growth as untreated, 0 = no growth, -100 = all killed); conditions: 10 µM unless noted
This is part of a sample that, as a whole, favours compounds with a hit. Of some 83,000 tested, about 20% had one in any assay.
The label Condition met is reserved for growth strictly under 80%; Condition not met covers values equal to or above it.

compound=CCCCCCCCCCCCCCCC1=NCC[N+]1(CCO)CCO group="Condition not met"
compound=Oc1ccc(Cl)cc1-c1cc(-c2ccccc2Cl)[nH]n1 group="Condition not met"
compound=O=C1Cc2c([nH]c3ccc([N+](=O)[O-])cc23)-c2ccccc2N1 group="Condition met"
compound=C/C(=N\OC(=O)Nc1cccc(Cl)c1)c1ccccc1 group="Condition met"
compound="CC1=NC(c2ccc(Cl)cc2)C2=C(N1)/C(=C/c1ccc(Cl)cc1)CCC2 (stereo unspecified)" group="Condition not met"
compound=CC(C)=CCC[C@H](C)c1ccc(C)c2c1OCN(CCO)C2 group="Condition met"
compound=COc1ccc2nc(C)cc(Nc3ccccc3O)c2c1 group="Condition not met"
compound=CC(=O)c1ccc(-n2c(-c3cc(-c4ccsc4)n[nH]3)n[nH]c2=S)cc1 group="Condition not met"

Where these numbers come from: PubChem BioAssay (NCI)
